# Tested on: Liver microsome
# procedure_summary: Clearance in rat liver microsomes at 2 uM by LC-MS/MS analysis
# Assay type: ADME
# CLH annotations
Kindly answer with a numeric value in µL/min/mg, unit omitted.

# compound_structure_string, CLH (µL/min/mg)
rows = [
    ("O=C(N[C@@H]1CCCC[C@H]1O)c1cnc(OC2CCCC2)c(-c2cc(C(F)(F)F)ccc2Cl)c1", 367),
    ("O=C(N[C@@H]1CCCC[C@H]1O)c1cnc(OCc2ccncc2)c(-c2ccc(Cl)cc2)c1", 118),
    ("O=C(N[C@@H]1CCCC[C@H]1O)c1cnc(OCc2cccnc2)c(-c2ccc(Cl)cc2)c1", 374),
]

Let us move to another entry and its CLH.
Output reported CLH of the molecule O=C(N[C@H]1CCCC[C@H]1O)c1cnc(OCC2CC2)c(-c2ccc(Cl)cc2)c1 on Liver microsome.
111

----------
# procedure_summary: Ratio of drug level in brain to plasma in rat
# Type: ADME
# test_parameters: brain and plasma, read-out: BPR
endpoint: Kp

Previously resolved entries follow.
# compound_structure_string, Kp
data = [
    ("O=C(N[C@@H]1CCCC[C@H]1O)c1cnc(OCC2CC2)c(-c2ccc(Cl)cc2)c1", 0.7),
    ("COCCOc1ncc(C(=O)N[C@@H]2CCCC[C@H]2O)cc1-c1ccc(Cl)cc1", 0.1),
]

Write down Kp measured for item Cc1c(C(=O)NN2CCCCC2)nn(-c2ccc(Cl)cc2Cl)c1-c1ccc(Cl)cc1
3

----------
# system: Cannabinoid receptor 1 (Homo sapiens, UniProt P21554)
# Sequence (P21554 whole entry): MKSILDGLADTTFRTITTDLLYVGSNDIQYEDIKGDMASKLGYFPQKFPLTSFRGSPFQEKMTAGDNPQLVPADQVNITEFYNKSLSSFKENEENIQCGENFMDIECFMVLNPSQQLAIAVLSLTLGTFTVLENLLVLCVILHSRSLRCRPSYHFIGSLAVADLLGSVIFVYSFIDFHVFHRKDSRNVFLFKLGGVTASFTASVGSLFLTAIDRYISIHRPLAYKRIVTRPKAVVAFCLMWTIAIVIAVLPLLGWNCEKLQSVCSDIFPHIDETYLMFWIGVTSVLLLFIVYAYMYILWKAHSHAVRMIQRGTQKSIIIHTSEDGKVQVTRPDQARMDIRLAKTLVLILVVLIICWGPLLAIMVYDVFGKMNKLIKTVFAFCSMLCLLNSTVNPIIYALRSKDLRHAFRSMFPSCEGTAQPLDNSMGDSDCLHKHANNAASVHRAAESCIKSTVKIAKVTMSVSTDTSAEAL
pKi: −log10 of the molar value.
Threshold check on pKi: at or above 6 gives class 1, strictly below gives class 0.

# compound_structure_string, group_label
measured = [
    ("O=C(N[C@H]1CCCC[C@H]1O)c1cnc(OCC2CC2)c(-c2ccc(Cl)cc2)c1", "class 1"),
    ("O=C(N[C@@H]1CCCC[C@H]1O)c1cnc(OC2CCCCC2)c(-c2ccc(Cl)cc2)c1", "class 0"),
]

Entry O=C(N[C@@H]1CCCC[C@H]1O)c1cnc(OCC2CC2)c(-c2ccc(C(F)(F)F)cc2)c1 : is its pKi no less than 6?
class 1

Entry O=C(N[C@@H]1CCCC[C@H]1O)c1ccc(OCC2CC2)c(-c2ccc(Cl)cc2)n1 : is its pKi no less than 6?
class 0

Entry O=C(N[C@@H]1CCCC[C@H]1O)c1cnc(OCC2CC2)c(-c2ccc(Cl)c(Cl)c2)c1 : is its pKi no less than 6?
class 1

----------
# procedure_summary: Cmax in rat plasma at 9 mg/kg, po
# Assay type: ADME, organism-based
# Parameters: dose 9 mg/kg, route oral
endpoint: Cmax (ng/mL)
Kindly answer with a numeric value in ng/mL, unit omitted.

Write down Cmax measured for item COCCOc1ncc(C(=O)N[C@@H]2CCCC[C@H]2O)cc1-c1ccc(Cl)cc1
1620

----------
# system: Cannabinoid receptor 1 (Homo sapiens, UniProt P21554)
# procedure_summary: Displacement of [3H]CP55940 from human CB1 receptor expressed in CHOK1 cells after 1 hr by liquid scintillation counting analysis
endpoint: IC50 (nM)
Kindly answer with a numeric value in nM, unit omitted.

# compound_structure_string, system, endpoint, measured_number
data = [
    ("O=C(N[C@@H]1CCCC[C@H]1O)c1cnc(OC2CCCC2)c(-c2cc(C(F)(F)F)ccc2Cl)c1", "Cannabinoid receptor 1 (Homo sapiens, UniProt P21554)", "IC50", 395),
]

Let us move to another entry and its IC50.
Write down IC50 measured for item Cc1c(C(=O)N[C@@H]2CCCC[C@H]2O)cc(-c2cc(C(F)(F)F)ccc2Cl)n1CC1CCCCC1
9.5

----------
Assay read-out pKi; system under study: Cannabinoid receptor 1 (Homo sapiens, UniProt P21554).
Quick note: pKi means taking -log10 of the concentration in moles per liter.

# compound_structure_string, pKi
records = [
    ("O=C(N[C@@H]1CCCC[C@H]1O)c1cnc(OCC2CC2)c(-c2ccc(OC(F)(F)F)cc2)c1", 7.63),
]

Output reported pKi of the compound O=C(NN1CCCCC1)c1cnc(OCC2CC2)c(-c2ccc(Cl)cc2)c1 on Cannabinoid receptor 1 (Homo sapiens, UniProt P21554).
6.25

Output reported pKi of the compound O=C(N[C@@H]1CCCC[C@H]1O)c1cnc(OCC2CC2)c(-c2cccc(Cl)c2)c1 on Cannabinoid receptor 1 (Homo sapiens, UniProt P21554).
6.89

Output reported pKi of the compound C[C@](O)(CNC(=O)c1cnc(OCC2CC2)c(-c2ccc(Cl)cc2)c1)C1CC1 on Cannabinoid receptor 1 (Homo sapiens, UniProt P21554).
7.46

----------
# pKi annotations
# system: Cannabinoid receptor 1 (Homo sapiens, UniProt P21554)
pKi: −log10 of the molar value.

# compound_structure_string, endpoint, result
records = [
    ("NS(=O)(=O)c1ccc(-c2cc(C(=O)N[C@@H]3CCCC[C@H]3O)cnc2OCC2CC2)cc1", "pKi", "< 5.00"),
]

Output reported pKi of the compound O=C(N[C@@H]1CCCC[C@H]1O)c1cc(-c2ccc(Cl)cc2)c(OCC2CC2)nn1 on Cannabinoid receptor 1 (Homo sapiens, UniProt P21554).
< 5.30

Output reported pKi of the compound O=C(O)c1ccc(-c2cc(C(=O)N[C@@H]3CCCC[C@H]3O)cnc2OCC2CC2)cc1 on Cannabinoid receptor 1 (Homo sapiens, UniProt P21554).
< 5.00

Output reported pKi of the compound NC(=O)c1ccc(-c2cc(C(=O)N[C@@H]3CCCC[C@H]3O)cnc2OCC2CC2)cc1 on Cannabinoid receptor 1 (Homo sapiens, UniProt P21554).
< 5.10

----------
# Ki annotations
# system: Cannabinoid receptor 2 (Homo sapiens, UniProt P34972)
# Sequence (P34972 whole entry): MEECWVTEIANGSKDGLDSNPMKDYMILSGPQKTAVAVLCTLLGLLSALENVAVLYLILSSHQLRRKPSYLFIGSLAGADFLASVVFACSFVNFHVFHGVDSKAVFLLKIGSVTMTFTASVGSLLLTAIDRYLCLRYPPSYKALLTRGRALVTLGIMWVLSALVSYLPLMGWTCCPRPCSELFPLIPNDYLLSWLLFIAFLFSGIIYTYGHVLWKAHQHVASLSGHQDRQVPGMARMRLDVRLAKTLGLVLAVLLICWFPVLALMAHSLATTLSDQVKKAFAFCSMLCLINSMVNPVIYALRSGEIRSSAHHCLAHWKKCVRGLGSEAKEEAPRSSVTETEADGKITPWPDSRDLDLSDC

Previously resolved entries follow.
# compound_structure_string, result
records = [
    ("O=C(N[C@@H]1CCCC[C@H]1O)c1ccc(OCC2CC2)c(-c2ccc(Cl)cc2)n1", "0.863 µM"),
    ("O=C(O)c1ccc(-c2cc(C(=O)N[C@@H]3CCCC[C@H]3O)cnc2OCC2CC2)cc1", "> 10 µM"),
    ("CCCCOc1ncc(C(=O)N[C@@H]2CCCC[C@H]2O)cc1-c1ccc(Cl)cc1", "> 10 µM"),
    ("O=C(N[C@@H]1CCCC[C@H]1O)c1cnc(OCC2CC2)c(-c2ccc(OC(F)(F)F)cc2)c1", "> 10 µM"),
    ("O=C(N[C@@H]1CCCC[C@H]1O)c1cnc(OCC(F)(F)F)c(-c2ccc(Cl)cc2)c1", "> 7 µM"),
    ("O=C(N[C@@H]1CCCC[C@H]1O)c1cnc(CCC2CC2)c(-c2ccc(Cl)cc2)c1", "> 10 µM"),
    ("N#Cc1ccc(-c2cc(C(=O)N[C@@H]3CCCC[C@H]3O)cnc2OCC2CC2)cc1", "> 10 µM"),
]

Let us move to another entry and its Ki.
Output reported Ki of the compound O=C(N[C@@H]1CCCC[C@@H]1O)c1cnc(OCC2CC2)c(-c2ccc(Cl)cc2)c1 on Cannabinoid receptor 2 (Homo sapiens, UniProt P34972).
> 5 µM
